Sourced from patent US20250147039A1

# test.details: Dissociation of chelates in aq. 0.1M HCl at RT (acid decomplexation kinetic inertness) (Chart 20)
# Format: physicochemical
# conditions: 1 hour
readout.name: fraction of intact chelate (%)
Note: unit % is implicit; provide only the numeric part.

Recorded fraction of intact chelate, per entry:
# get_value(readout='fraction of intact chelate', item= O=C1C[N@@]2CC[N@]3CC[N@@](CC[N@](CC2)Cc2cccc(n2)-c2cnnn2Cc2cc(-c4ccccc4)cc(n2)C3)CC(=O)[O][Eu][O]1 ) 100

# get_value(readout='fraction of intact chelate', item= O=C1C[N@@]2CC[N@]3CC[N@@](CC[N@](CC2)Cc2cccc(n2)-c2cnnn2Cc2cc(-c4ccccc4)cc(n2)C3)CC(=O)[O][Sm][O]1 ) 100

# get_value(readout='fraction of intact chelate', item= O=C1C[N@@]2CC[N@]3CC[N@@](CC[N@](CC2)Cc2cccc(n2)-c2cnnn2Cc2cc(-c4ccccc4)cc(n2)C3)CC(=O)[O][Ce][O]1 ) 95

# get_value(readout='fraction of intact chelate', item= O=C([O-])CN1CCN2CCN(CC(=O)[O-])CCN(CC1)Cc1cccc(n1)-c1cnnn1Cc1cc(-c3ccccc3)cc(n1)C2.[Pb+2] ) 6

# get_value(readout='fraction of intact chelate', item= O=C([O-])CN1CCN2CCN(CC(=O)[O-])CCN(CC1)Cc1cccc(n1)-c1cnnn1Cc1cc(-c3ccccc3)cc(n1)C2.[Zn+2] ) 100

Others:
# get_value(readout='fraction of intact chelate', item= O=P1(c2ccccc2)C[N@@]2CC[N@]3CC[N@@](CC[N@](CC2)Cc2cccc(n2)-c2cnnn2Cc2cccc(n2)C3)CP(=O)(c2ccccc2)[O][Gd][O]1 (some centres unmarked) ) 100

# get_value(readout='fraction of intact chelate', item= O=C1C[N@@]2CC[N@]3CC[N@@](CC[N@](CC2)Cc2cccc(n2)-c2cnnn2Cc2cc(-c4ccccc4)cc(n2)C3)CC(=O)[O][Tb][O]1 ) 100

# get_value(readout='fraction of intact chelate', item= O=C1C[N@@]2CC[N@]3CC[N@@](CC[N@](CC2)Cc2cccc(n2)-c2cn(nn2)Cc2cc(-c4ccccc4)cc(n2)C3)CC(=O)[O][Lu][O]1 ) 99

###

Examples of molecules with documented conversion to 1,5-cz-[Ln(Lig)], Pr^III follow.
# test.details: Formation of 1,5-cz-[Ln(Lig)] from Lig and Ln^III ions (metal dependent click-zip), MOPS/NaOH buffer pH 7.0, analytical HPLC (Charts 1, 2)
# conditions: Pr^III; after 1 hour at 80° C.; MOPS/NaOH buffer pH 7.0
Note: unit % is implicit; provide only the numeric part.

Recorded conversion to 1,5-cz-[Ln(Lig)], Pr^III, per entry:
# get_value(readout='conversion to 1,5-cz-[Ln(Lig)], Pr^III', item= C#CCN(CC#C)CCN1CCN(CC(=O)O)CCN(Cc2cc(-c3ccccc3)cc(CN=[N+]=[N-])n2)CCN(CC(=O)O)CC1 ) 0

# get_value(readout='conversion to 1,5-cz-[Ln(Lig)], Pr^III', item= [N-]=[N+]=NCc1cccc(CN2CCN(CC(=O)O)CCN(Cc3cccc(C#CC4CCNCC4)n3)CCN(CC(=O)O)CC2)n1 ) 0

# get_value(readout='conversion to 1,5-cz-[Ln(Lig)], Pr^III', item= C#CCNC(=O)CN1CCN(CC(=O)O)CCN(Cc2cc(-c3ccccc3)cc(CN=[N+]=[N-])n2)CCN(CC(=O)O)CC1 ) 0

# get_value(readout='conversion to 1,5-cz-[Ln(Lig)], Pr^III', item= C#Cc1cccc(CN2CCN(CC(=O)O)CCN(Cc3cc(N(C)C)cc(CN=[N+]=[N-])n3)CCN(CC(=O)O)CC2)n1 ) 1

# get_value(readout='conversion to 1,5-cz-[Ln(Lig)], Pr^III', item= C#Cc1cccc(CN2CCN(CCC(=O)O)CCN(Cc3cccc(CN=[N+]=[N-])n3)CCN(CCC(=O)O)CC2)n1 ) 0

# get_value(readout='conversion to 1,5-cz-[Ln(Lig)], Pr^III', item= C#Cc1cccc(CN2CCN(CC(=O)O)CCN(Cc3cccc(CN=[N+]=[N-])n3)CCN(CC(=O)O)CC2)n1 ) 1

# get_value(readout='conversion to 1,5-cz-[Ln(Lig)], Pr^III', item= CC(C)(C#Cc1cccc(CN2CCN(CC(=O)O)CCN(Cc3cccc(CN=[N+]=[N-])n3)CCN(CC(=O)O)CC2)n1)NC(=O)OC(C)(C)C ) 0

# get_value(readout='conversion to 1,5-cz-[Ln(Lig)], Pr^III', item= [N-]=[N+]=NCc1cccc(CN2CCN(CC(=O)O)CCN(Cc3cccc(C#CI)n3)CCN(CC(=O)O)CC2)n1 ) 0

Here is another molecule to look at.
# get_value(readout='conversion to 1,5-cz-[Ln(Lig)], Pr^III', item= C#Cc1cccc(CN2CCN(CC(=O)O)CCN(Cc3cc(-c4ccccc4)cc(CN=[N+]=[N-])n3)CCN(CC(=O)O)CC2)n1 ) 1

###

# test.details: Dissociation of chelates in aq. 0.1M HCl at RT (acid decomplexation kinetic inertness) (Chart 20)
# Type: physicochemical
# conditions: 1 month
readout.name: fraction of intact chelate (%)
Note: unit % is implicit; provide only the numeric part.

Recorded fraction of intact chelate, per entry:
# get_value(readout='fraction of intact chelate', item= O=C1C[N@@]2CC[N@]3CC[N@@](CC[N@](CC2)Cc2cccc(n2)-c2cn(nn2)Cc2cc(-c4ccccc4)cc(n2)C3)CC(=O)[O][Gd][O]1 [TD875] ) 0

# get_value(readout='fraction of intact chelate', item= O=C1C[N@@]2CC[N@]3CC[N@@](CC[N@](CC2)Cc2cccc(n2)-c2cnnn2Cc2cc(-c4ccccc4)cc(n2)C3)CC(=O)[O][Gd][O]1 [TD527] ) 100

# get_value(readout='fraction of intact chelate', item= O=C1C[N@@]2CC[N@]3CC[N@@](CC[N@](CC2)Cc2cccc(n2)-c2cnnn2Cc2cc(-c4ccccc4)cc(n2)C3)CC(=O)[O][La][O]1 [TD651] ) 0

# get_value(readout='fraction of intact chelate', item= O=C1C[N@@]2CC[N@]3CC[N@@](CC[N@](CC2)Cc2cccc(n2)-c2cn(nn2)Cc2cc(-c4ccccc4)cc(n2)C3)CC(=O)[O][Lu][O]1 [TD874] ) 0

# get_value(readout='fraction of intact chelate', item= O=C1C[N@@]2CC[N@]3CC[N@@](CC[N@](CC2)Cc2cccc(n2)-c2cn(nn2)Cc2cc(-c4ccccc4)cc(n2)C3)CC(=O)[O][Cd][O]1 [TD900] ) 63

Others:
# get_value(readout='fraction of intact chelate', item= O=C1C[N@@]2CC[N@]3CC[N@@](CC[N@](CC2)Cc2cccc(n2)-c2cnnn2Cc2cc(-c4ccccc4)cc(n2)C3)CC(=O)[O][Nd][O]1 [TD868] ) 2

# get_value(readout='fraction of intact chelate', item= O=C([O-])CN1CCN2CCN(CC(=O)[O-])CCN(CC1)Cc1cccc(n1)-c1cnnn1Cc1cc(-c3ccccc3)cc(n1)C2.[Ca+2] [TD863] ) 0

# get_value(readout='fraction of intact chelate', item= O=C1C[N@@]2CC[N@]3CC[N@@](CC[N@](CC2)Cc2cccc(n2)-c2cnnn2Cc2cc(-c4ccccc4)cc(n2)C3)CC(=O)[O][Eu][O]1 [TD599] ) 100

# get_value(readout='fraction of intact chelate', item= O=P1(c2ccccc2)C[N@@]2CC[N@]3CC[N@@](CC[N@](CC2)Cc2cccc(n2)-c2cnnn2Cc2cccc(n2)C3)CP(=O)(c2ccccc2)[O][Gd][O]1 (stereo partly drawn) [TD925] ) 100

###

# test.details: Formation of 1,5-cz-[Ln(Lig)] from Lig and Ln^III ions (metal dependent click-zip), MOPS/NaOH buffer pH 7.0, analytical HPLC (Charts 1, 2)
# conditions: Yb^III; after 1 week at 80° C.; MOPS/NaOH buffer pH 7.0
Examples of compounds with documented conversion to 1,5-cz-[Ln(Lig)], Yb^III follow.
Note: unit % is implicit; provide only the numeric part.

Recorded conversion to 1,5-cz-[Ln(Lig)], Yb^III, per entry:
# get_value(readout='conversion to 1,5-cz-[Ln(Lig)], Yb^III', item= C#CCN(CC#C)CCN1CCN(CC(=O)O)CCN(Cc2cc(-c3ccccc3)cc(CN=[N+]=[N-])n2)CCN(CC(=O)O)CC1 [TD669] ) 10

# get_value(readout='conversion to 1,5-cz-[Ln(Lig)], Yb^III', item= [N-]=[N+]=NCc1cccc(CN2CCN(CC(=O)O)CCN(Cc3cccc(C#CC4CCNCC4)n3)CCN(CC(=O)O)CC2)n1 [TD1127] ) 95

# get_value(readout='conversion to 1,5-cz-[Ln(Lig)], Yb^III', item= [N-]=[N+]=NCc1cccc(CN2CCN(CC(=O)O)CCN(Cc3cccc(C#CC45CC6CC(CC(C6)C4)C5)n3)CCN(CC(=O)O)CC2)n1 [TD992] ) 99

Others:
# get_value(readout='conversion to 1,5-cz-[Ln(Lig)], Yb^III', item= C#Cc1cccc(CN2CCN(CP(=O)(O)OCC)CCN(Cc3cccc(CN=[N+]=[N-])n3)CCN(CP(=O)(O)OCC)CC2)n1 [TD582] ) 59
